The reported measurements were obtained from PubChem BioAssay.

- Experiment summary: MM1S myeloma cell viability, profiling panel, resazurin fluorescence, basal, 24 h, PK04 Diversity Set (AID 1174);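 note: MM1S multiple myeloma cell line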
- Measurement context: higher = more signal, called active from +8 up or from −8 down

Compound	z-score
[N-]=[N+]=NCc1ccccc1[C@H]1OC(c2ccc(OCCCO)cc2)=N[C@@]1(CCS(=O)(=O)c1ccccc1)C(=O)NCC(O)CO (stereo partly specified)	-0.315
COCCOC(=O)N1C(=O)[C@@]2(c3cc(C#Cc4ccc(OC)cc4)ccc31)[C@H](C(=O)Nc1nc3ccccc3s1)[C@H]1C(=O)O[C@H](c3ccccc3)[C@H](c3ccccc3)N1[C@@H]2c1ccc(OCCO)cc1	-0.63
[N-]=[N+]=Nc1ccccc1C[C@]1(C(=O)N2CCOCC2)N=C(c2ccc(OCCCO)cc2)O[C@H]1c1ccccc1	-1.25
CC(C)C(CO)N1C(=O)[C@@H]2C3C(=O)OCCC/C=C\[C@H]3OC23C=CCN(C(C)(C)C)C(=O)[C@@H]13 (stereo partly specified)	-0.428
C[C@@H]1NC(=O)[C@@]23C(=O)N[C@@H](Cc4ccccc4)C2[C@H](C)[C@@]2(C)O[C@H]2C3/C=C/C/C=C\CNC(=O)[C@@H]2CCCN2C1=O (stereo partly specified)	-0.737
[N-]=[N+]=Nc1ccccc1[C@@H]1OC(c2ccc(OCCCO)cc2)=N[C@]1(Cc1ccccc1)C(=O)NCC(O)CO (stereo partly specified)	-0.53

* * *

- Experiment summary: basal MM1S mitochondrial membrane potential changes, profiling panel, cell-based, JC-1 fluorescence, 24 h, 100 nL compound (AID 1170)
- Measurement context: higher = more signal

Compound	z-score
COC(=O)[C@@]1(Cc2ccccc2)[C@@H]2C(=CC(=O)[C@H]2CC(=O)C(=O)N(C)C)CN1C(=O)c1ccccc1	-2.68
O=C1C2C=CC(C(O)c3ccc(F)cc3)N(n3cnnc3)C2C(=O)N1Cc1ccccc1 (stereo unspecified)	0.0911
[N-]=[N+]=Nc1ccccc1[C@H]1OC(c2ccc(OCCCO)cc2)=N[C@@]1(CCS(=O)(=O)c1ccccc1)C(=O)NCCN1CCOCC1	-0.691
C[C@]1(C(=O)NC2CC2)c2ccccc2C(=O)N(Cc2ccccc2)[C@H]1c1ccc(CO)cc1	0.263
O=C1O[C@@H](c2ccccc2)[C@@H](c2ccccc2)N2[C@@H](c3ccc(OCCO)cc3)[C@]3(C(=O)Nc4ccccc43)[C@@H](C(=O)O)[C@H]12	-1.13
C=CCC(OC(C)=O)[C@@H]1[C@@H](N(Cc2ccc(-c3cccc(C(F)(F)F)c3)o2)C(=O)c2ccc(C)cc2)c2cc(OCCCO)ccc2N1C(=O)c1ccc2ccccc2c1 (stereo partly specified)	-0.555
O=C1O[C@@H](c2ccccc2)[C@@H](c2ccccc2)N2[C@@H](c3ccccc3OCCO)[C@]3(C(=O)Nc4ccc(C#CCCO)cc43)[C@@H](C(=O)N3CCCCCCC3)[C@H]12	-1.63
O=C1O[C@H](c2ccccc2)[C@H](c2ccccc2)N2[C@H]1[C@@H](C(=O)N1CCN(c3ncccn3)CC1)[C@]1(C(=O)Nc3ccc(C#CC4(O)CCCCCC4)cc31)[C@H]2c1ccc(OCCO)cc1	-0.87
O=C1N(Cc2ccccc2)c2ccccc2[C@@H]2OC(c3ccc(OCCCO)cc3)=N[C@]12Cc1ccccc1	-0.884
O=C1O[C@@H](c2ccccc2)[C@@H](c2ccccc2)N2[C@@H](c3ccc(O)cc3)[C@]3(C(=O)Nc4ccc(C#CC5(O)CCCCCC5)cc43)[C@@H](C(=O)NC[C@H](O)c3ccccc3)[C@H]12	-0.279
CC(c1ccccc1)C(O)C1C=CC2C(=O)N(c3ccccc3)C(=O)C2N1Nc1ccc([N+](=O)[O-])cc1 (stereo unspecified)	-1.44
C=CCC(OC(C)=O)[C@@H]1[C@@H](N(Cc2cccc3ccccc23)C(=O)c2cccc3ccccc23)c2cc(OCCCO)ccc2N1C(=O)c1ccc(-c2ccccc2)cc1 (stereo partly specified)	-0.177
COCCOC(=O)N1C(=O)[C@@]2(c3cc(C#CC4(O)CCCCCC4)ccc31)[C@H](c1ccc(O)cc1)N1[C@H](c3ccccc3)[C@H](c3ccccc3)OC(=O)[C@H]1[C@@H]2C(=O)NC[C@H](O)c1ccccc1	-0.715
CCCC[C@@H]1C[C@H]1[C@@H](NC(=O)c1cccs1)c1ccc(C(F)(F)F)cc1	-0.917
COCCOC(=O)N1C(=O)[C@@]2(c3cc(C#CCCO)ccc31)[C@H](c1ccccc1OCCO)N1[C@H](c3ccccc3)[C@H](c3ccccc3)OC(=O)[C@H]1[C@@H]2C(=O)Nc1nc2ccccc2s1	-0.998
CCCNC(=O)[C@@]1(c2ccc([N+](=O)[O-])cc2)CC(=O)N(C2CCCCC2)[C@@H]1c1ccc(CO)cc1	0.773
C=CCNC(=O)[C@@H]1[C@H]2C(=O)O[C@H](c3ccccc3)[C@H](c3ccccc3)N2[C@H](c2ccc(O)cc2)[C@@]12C(=O)N(C(=O)OCCOC)c1ccc(C#CC3(O)CCCCCC3)cc12	-0.432
N#Cc1ccc(C(O)C2C=CC3C(=O)N(c4ccccc4)C(=O)C3N2Nc2ccccc2)cc1 (stereo unspecified)	-0.482
O=C1NC(=O)C2C1C=CC(C(O)CCc1ccccc1)N2Nc1ccc(Cl)cc1Cl (stereo unspecified)	-0.0222
O=C1NC(=O)C2C1C=CC(C(O)c1c(F)cccc1Cl)N2Nc1ccc(Cl)cc1Cl (stereo unspecified)	-1.46
C=CCNC(=O)[C@H]1[C@@H]2C(=O)O[C@@H](c3ccccc3)[C@@H](c3ccccc3)N2[C@@H](c2ccc(O)cc2)[C@]12C(=O)Nc1ccc(C#CC3(O)CCCCCC3)cc12	-0.291
CC1CC/C=C\[C@H]2OC34C=CCN(C(C)C)C(=O)[C@H]3N(CCCCCCO)C(=O)[C@@H]4C2C(=O)O1 (stereo partly specified)	-1.04
COCCOC(=O)N1C(=O)[C@@]2(c3ccccc31)[C@H](C(=O)N1CCN(c3ncccn3)CC1)[C@H]1C(=O)O[C@H](c3ccccc3)[C@H](c3ccccc3)N1[C@@H]2c1ccc(O)cc1	0.0963
CCCCCCc1nc(-c2cc(C)c(OC)c(C)c2)c(C)c2c1[Si](C(C)C)(C(C)C)OC2	-1.6
C=CCC(OC(C)=O)[C@@H]1[C@@H](N(Cc2ccc(-c3ccccc3)cc2)C(=O)Cc2ccc(F)cc2)c2cc(OCCCO)ccc2N1C(=O)Cc1ccc(OC)cc1 (stereo partly specified)	-0.362
C=CCC(OC(C)=O)[C@@H]1[C@@H](N(Cc2cc3ccccc3o2)C(=O)c2ccc(C)cc2)c2cc(OCCCO)ccc2N1C(=O)Cc1ccc(OC)cc1 (stereo partly specified)	0.449

* * *

- System: XIP peptide (Xip251-270) binding
- Experiment summary: small-molecule binders of XIP peptide, primary screen, biochemical, small-molecule microarray, fluorescence 635/667 nm, 0.1 µg/mL protein (AID 1182)
- Measurement context: fluorescent protein binding, 635 nm, higher = more signal, called active from +8 up or from −8 down
Categories are defined by ranges of composite z-score, namely group 1 (below 0.4), group 2 (0.4 to below 0.8), group 3 (0.8 or more)

Compound	Classification
C=CCOC(=O)[C@H]1[C@@H]2C(=O)O[C@@H](c3ccccc3)[C@@H](c3ccccc3)N2[C@@H](c2ccc(OCCOC(=O)[C@@H]3C[C@@H]4C(=O)N[C@@H](CCCCN(C)C)C(=O)N4[C@@H]3c3ccc(O)cc3)cc2)[C@]12C(=O)Nc1ccccc12	group 3
O=C1O[C@@H](c2ccccc2)[C@@H](c2ccccc2)N2[C@@H](c3ccc(O)cc3)[C@]3(C(=O)Nc4ccc(C#CC5=CCCCC5)cc43)[C@@H](C(=O)NC[C@H](O)c3ccccc3)[C@H]12	group 2
CCOc1cc(C(O)C2C=CC3C(=O)N(c4ccccc4)C(=O)C3N2Nc2ccc(C#N)cc2)ccc1O (stereo not given)	group 1
COC(=O)[C@@]1(Cc2ccccc2)[C@H]2c3cc(C(=O)N(C)C)n(Cc4c(CO)[nH]cc(C)c4=O)c3C[C@H]2CN1C(=O)c1ccccc1	group 1
C=CCOC(=O)[C@H]1[C@@H]2C(=O)O[C@@H](c3ccccc3)[C@@H](c3ccccc3)N2[C@@H](c2ccc(OCCOC(=O)[C@@H]3C[C@@H]4C(=O)N[C@@H](CCCCNC(C)=O)C(=O)N4[C@@H]3c3ccc(O)cc3)cc2)[C@]12C(=O)Nc1ccc(I)cc12	group 3
CC=CC(O)C1C=CC2C(=O)N(c3ccccc3)C(=O)C2N1Nc1ccccc1F (stereo not given)	group 1
C[N+](C)(C)CCCCCCNC(=O)[C@H]1C[C@H]2C(=O)NCC(=O)N2[C@H]1c1ccc(O)cc1	group 2

* * *

- System: Noggin (protein binding on small-molecule microarray)
- Experiment summary: Noggin binders on small-molecule microarray, primary screen, biochemical, 635/667 nm fluorescence (AID 1095);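 note: score merges 667 nm feature fluorescence with signal to noise over triplicate slides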
- Measurement context: 635 nm fluorescence, higher = more signal
Please mark rule met if the recorded composite z-score is equal to or greater than 0.1, and rule not met if it falls below.

Molecule	Classification
CC(C)C[C@@H]1NC(=O)[C@@H]2C[C@H](C(=O)NCCCCN(C)C)[C@H](c3cccc(OCCO)c3)N2C1=O	rule met
CN(C)CCCNC(=O)[C@@H]1c2ccccc2C(=O)N(Cc2ccccc2Cl)[C@H]1c1ccc(CO)cc1	rule not met
Cc1ccc(S[C@]2(C(=O)O)CC(=O)N(Cc3cc(C(F)(F)F)cc(C(F)(F)F)c3)[C@@H]2c2ccc(CO)cc2)cc1	rule not met
CCOC(=O)C[C@H]1[C@H](OC(=O)Cc2ccc3c(c2)OCO3)[C@@H](NC(=O)Cc2ccc(OC)cc2)c2cc(OCCCO)ccc2N1C(=O)c1ccc2ccccc2n1	rule met
COC(=O)[C@@]1(Cc2ccccc2N=[N+]=[N-])N=C(c2ccc(OCCCO)cc2)O[C@H]1c1ccccc1N=[N+]=[N-]	rule met
O=C1c2ccccc2[C@](Cc2ccccc2I)(C(=O)NCC(F)(F)F)[C@H](c2ccc(CO)cc2)N1C1CCCCC1	rule met
COCCOC(=O)N1C(=O)[C@@]2(c3cc(C#CC4=CCCCC4)ccc31)[C@H](c1ccc(OCCO)cc1)N1[C@H](c3ccccc3)[C@H](c3ccccc3)OC(=O)[C@H]1[C@@H]2C(=O)NC[C@H](O)c1ccccc1	rule met
C=C(/C(=C/C[C@@H](OC(C)=O)c1cccc(OCCO)c1)c1cc(C(=O)OC)ccc1OC)C(C)C	rule met
CC(C)C[C@@H]1NC(=O)[C@@H]2C[C@H](C(=O)NCCCCCN)[C@H](c3ccc(O)cc3)N2C1=O	rule met
C=CCN1C(=O)[C@@]2(CCS(=O)(=O)c3ccccc3)N=C(c3ccc(OCCCO)cc3)O[C@H]2c2ccccc21	rule met
[N-]=[N+]=Nc1ccccc1[C@H]1OC(c2ccc(OCCCO)cc2)=N[C@@]1(CCS(=O)(=O)c1ccccc1)C(=O)NCCN1CCOCC1	rule met
OCC1CC(c2ccccc2)=NO1 (centres undefined)	rule met
COC(=O)[C@@]1(Cc2ccc(F)cc2)[C@H]2c3cc(C(=O)N(C)C)n(Cc4cc(F)cc5c4OCOC5)c3C[C@H]2CN1C(=O)c1ccccc1	rule met
Cc1cc(C)c(C(O)C2C=CC3C(=O)N(c4ccccc4)C(=O)C3N2Nc2ccc(C(C)C)cc2)c(C)c1 (centres undefined)	rule not met
C[C@]1(C(=O)NC2CC2)c2ccccc2C(=O)N(Cc2ccccc2)[C@H]1c1ccc(CO)cc1	rule not met
CCCC[C@@H]1C[C@H]1[C@@H](NC(=O)c1cccs1)c1ccc(C(F)(F)F)cc1	rule not met
COC(=O)c1c2oc(c1C(=O)OC)C(=O)N(Cc1ccccc1)Cc1cn(nn1)C[C@H](Cc1ccccc1)NC(=O)N[C@H](CO)CC2	rule met
COCCCNC(=O)[C@]1(CCS(=O)(=O)c2ccccc2)N=C(c2ccc(OCCCO)cc2)O[C@@H]1c1ccccc1CN=[N+]=[N-]	rule met
O=C1NC(=O)C2C1C=CC(C(O)c1cccc3ccccc13)N2Nc1ccc(Cl)cc1Cl (centres undefined)	rule not met
C=CCC(OC(C)=O)[C@@H]1[C@@H](N(Cc2cccc3ccccc23)C(=O)Cc2ccc(OC)cc2)c2cc(OCCCO)ccc2N1C(=O)c1ccc2ccccc2n1 (some centres undefined)	rule met
CC(C)N1C(=O)C[C@@](C(=O)NCCCN(C)C)(c2ccc([N+](=O)[O-])cc2)[C@H]1c1ccc(CO)cc1	rule not met
C=CC1c2cc(O)c(OC)cc2CCN1Cc1cc2c(cc1Br)OCO2 (centres undefined)	rule met
COC(=O)[C@@]1(Cc2ccccc2)[C@H]2c3cc(C(=O)N(C)C)n(Cc4c(CO)[nH]cc(C)c4=O)c3C[C@H]2CN1C(=O)c1ccccc1	rule not met
COCCCNC(=O)[C@@]1(Cc2ccccc2CN=[N+]=[N-])N=C(c2ccc(OCCCO)cc2)O[C@H]1c1ccccc1	rule met
COCCOC(=O)N1C(=O)[C@@]2(c3cc(C#CC4(O)CCCCCC4)ccc31)[C@H](c1ccc(O)cc1)N1[C@H](c3ccccc3)[C@H](c3ccccc3)OC(=O)[C@H]1[C@@H]2C(=O)NC[C@H](O)c1ccccc1	rule met
C=CCC(OC(C)=O)[C@@H]1[C@@H](N(Cc2cccc3ccccc23)C(=O)Cc2ccc(F)cc2)c2cc(OCCCO)ccc2N1C(=O)c1ccc2ccccc2n1 (some centres undefined)	rule not met
CCOC(=O)C1=CC[C@@H](c2ccc(OCc3ccccc3)c(OC)c2)N(S(=O)(=O)c2ccc(C)cc2)[C@H]1c1ccc(SC)cc1	rule met
COCCCNC(=O)[C@]1(CCS(=O)(=O)c2ccccc2)N=C(c2ccc(OCCCO)cc2)O[C@@H]1c1ccccc1N=[N+]=[N-]	rule not met
CN(C)C(=O)[C@@]1(CCS(=O)(=O)c2ccccc2)N=C(c2ccc(OCCCO)cc2)O[C@H]1c1ccccc1	rule not met
